Recorded measurements of IC50, one per entry
tested on: T1, HLA-DP DPB1*0201 (human)
T1 chain 1: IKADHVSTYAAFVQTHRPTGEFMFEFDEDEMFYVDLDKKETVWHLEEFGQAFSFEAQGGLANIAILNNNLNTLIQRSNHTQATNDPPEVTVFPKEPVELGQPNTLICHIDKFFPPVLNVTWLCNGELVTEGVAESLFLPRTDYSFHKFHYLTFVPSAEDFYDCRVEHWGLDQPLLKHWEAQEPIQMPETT
T1 chain 2: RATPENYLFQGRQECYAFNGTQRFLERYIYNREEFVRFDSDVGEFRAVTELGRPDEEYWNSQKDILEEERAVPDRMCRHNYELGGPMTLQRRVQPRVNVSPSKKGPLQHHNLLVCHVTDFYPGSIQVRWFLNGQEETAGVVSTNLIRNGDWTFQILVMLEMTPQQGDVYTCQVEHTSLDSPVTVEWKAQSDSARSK
test description: inhibition of radiolabeled peptide binding to purified HLA-DP
measured property: IC50 (nM)

* GGSILKISNKFHTKG [Aln g 1 (111-125) peptide 3324.0007] | 843
* LEKISNEIKIVATPD [Bet v 1 (96-110) peptide 3324.0353] | 7570
* YVGHDEFDAFVAYHI [Der p 4 (476-490) peptide 3324.0975] | 177
* IEFRFYKEITNVFRG [Der p 4 (251-265) peptide 3324.0976] | 35
* AFMLAWNYGVPRVMS [Der p 4 (321-335) peptide 3324.0977] | 185
* EIYNMVKFRMIAGQE [Der p 4 (386-400) peptide 3324.0978] | 5.3
* PSVIPAARLFKAFIL [Aln g 1 (11-25) peptide 3324.0004] | 63
* SRGNRAFIAINLQKN [Der p 4 (416-430) peptide 3324.0974] | 7.2
* EHRWREIYNMVKFRM [Der p 4 (381-395) peptide 3324.0986] | 109
